The entries below are paired with their reported EC50.
Target: C. elegans Slo-1a (Caenorhabditis elegans)
Sequence (Q95V25 whole entry): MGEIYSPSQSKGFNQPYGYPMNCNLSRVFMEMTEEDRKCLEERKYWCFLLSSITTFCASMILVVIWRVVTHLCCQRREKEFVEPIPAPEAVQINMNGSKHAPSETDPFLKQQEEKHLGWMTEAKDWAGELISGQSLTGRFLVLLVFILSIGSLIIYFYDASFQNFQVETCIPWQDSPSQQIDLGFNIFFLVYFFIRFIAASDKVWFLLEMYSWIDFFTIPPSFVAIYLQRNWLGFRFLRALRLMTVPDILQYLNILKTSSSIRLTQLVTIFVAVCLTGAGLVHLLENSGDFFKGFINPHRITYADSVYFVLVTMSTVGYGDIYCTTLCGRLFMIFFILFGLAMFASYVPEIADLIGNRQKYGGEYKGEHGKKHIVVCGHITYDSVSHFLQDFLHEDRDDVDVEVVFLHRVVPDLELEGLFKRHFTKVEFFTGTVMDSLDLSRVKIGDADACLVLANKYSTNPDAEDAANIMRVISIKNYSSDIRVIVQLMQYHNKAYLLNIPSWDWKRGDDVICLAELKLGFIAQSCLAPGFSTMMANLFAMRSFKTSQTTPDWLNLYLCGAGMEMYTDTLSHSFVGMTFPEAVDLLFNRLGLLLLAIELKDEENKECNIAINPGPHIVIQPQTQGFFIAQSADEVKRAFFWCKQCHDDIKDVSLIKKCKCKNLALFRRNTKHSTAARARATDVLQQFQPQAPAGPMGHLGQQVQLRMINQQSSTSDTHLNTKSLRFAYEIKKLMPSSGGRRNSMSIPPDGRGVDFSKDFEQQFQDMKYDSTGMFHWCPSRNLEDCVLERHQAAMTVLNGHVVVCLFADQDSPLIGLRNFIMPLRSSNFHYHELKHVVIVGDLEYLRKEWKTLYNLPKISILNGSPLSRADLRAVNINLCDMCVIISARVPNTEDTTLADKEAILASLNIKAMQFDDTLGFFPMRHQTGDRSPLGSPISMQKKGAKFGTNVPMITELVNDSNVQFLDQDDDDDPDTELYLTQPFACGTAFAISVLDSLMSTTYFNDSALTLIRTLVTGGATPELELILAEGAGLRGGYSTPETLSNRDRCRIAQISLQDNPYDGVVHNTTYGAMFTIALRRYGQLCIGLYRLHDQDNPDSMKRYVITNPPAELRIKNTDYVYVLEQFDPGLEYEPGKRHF
Settings: pE50 (negative decadic logarithm of EC50), CHO cells expressing C. elegans Slo-1a, voltage sensitive dye

O=C(N[C@H]1CCOc2ccccc21)c1cnc2c(-c3cccc(Cl)c3Cl)c(C(F)(F)F)ccc2c1N1CCOCC1; < 3.16 nM
CN(C)c1c(C(=O)N[C@H]2CCOc3ccccc32)cnc2c(-c3ccc4ncn(C)c4c3)cccc12; 31.6 to 316 nM
CCOC(=O)C(C#N)c1c(C(=O)N[C@H]2CCOc3ccccc32)cnc2c(-c3cc(Cl)cc(Cl)c3)cccc12 (stereo partly shown); 31.6 to 316 nM
CN(C)c1c(C(=O)N[C@H]2CCOc3ccccc32)cnc2c(-c3ccc(F)cc3Cl)cc(F)cc12; 3.16 to 31.6 nM
CN(C)c1c(C(=O)NC2CCOc3c(Br)cccc32)cnc2c(-c3cc(Cl)cc(Cl)c3)cccc12 (stereo not shown); 31.6 to 316 nM
Cc1nc2c(-c3cccc(Cl)c3Cl)cccc2c(N(C)C)c1C(=O)N[C@H]1CCOc2ccccc21; 3.16 to 31.6 nM
O=C(N[C@H]1CCOc2ccccc21)c1cnc2c(-c3cccc(F)c3Cl)cccc2c1N1CCC(O)C1 (mixture of isomers); 3.16 to 31.6 nM
CCOC(=O)CN(C)c1c(C(=O)N[C@H]2CCOc3ccccc32)cnc2c(-c3cc(Cl)cc(Cl)c3)cccc12; < 3.16 nM

Given the entry "CN(C)C(=O)c1c(C(=O)N[C@H]2CCOc3ccccc32)cnc2c(-c3cc(Cl)cc(Cl)c3)cccc12" , report its measured EC50.
3.16 to 31.6 nM

Given the entry COc1ccc(F)cc1-c1cccc2c(N3CCC(O)C3)c(C(=O)N[C@H]3CCOc4ccccc43)cnc12 (mixture of isomers) , report its measured EC50.
3.16 to 31.6 nM

Given the entry "CN(C)c1c(C(=O)N[C@H]2CCOc3ccccc32)cnc2c(-c3cc(C#N)cc(Cl)c3Cl)cccc12" , report its measured EC50.
< 3.16 nM

Given the entry "COC(=O)c1cc(-c2cccc3c(N4CCOCC4)c(C(=O)N[C@H]4CCOc5ccccc54)cnc23)c2ocnc2c1" , report its measured EC50.
31.6 to 316 nM

Given the entry Cc1cc(Cl)cc(-c2cccc3c(N4CCC(O)C4)c(C(=O)N[C@H]4CCOc5ccccc54)cnc23)c1F (mixture of isomers) , report its measured EC50.
< 3.16 nM

Given the entry "O=C(N[C@H]1CCc2ccccc21)c1cnc2c(-c3cc(Cl)cc(Cl)c3)cccc2c1N1CC(O)C1" , report its measured EC50.
3.16 to 31.6 nM

Given the entry "O=C(N[C@H]1CCOc2ccccc21)c1cnc2c(-c3cc(Cl)cc(Cl)c3)cccc2c1-n1nccn1" , report its measured EC50.
< 3.16 nM

Given the entry "O=C(N[C@H]1CCc2ccccc21)c1cnc2c(-c3cc(Cl)cc(Cl)c3)cccc2c1N1CC(F)C1" , report its measured EC50.
3.16 to 31.6 nM

Given the entry "CC1CN(c2c(C(=O)N[C@H]3CCc4ccccc43)cnc3c(-c4cc(Cl)cc(Cl)c4)cccc23)C1" , report its measured EC50.
31.6 to 316 nM

Given the entry "COc1cc(F)c(-c2cccc3c(N4CCOCC4)c(C(=O)N[C@H]4CCOc5ccccc54)cnc23)cc1F" , report its measured EC50.
31.6 to 316 nM

Given the entry "O=C(N[C@H]1CCOc2ccccc21)c1cnc2c(-c3cc(Cl)cc(C(F)(F)F)c3)cccc2c1N1CCOCC1" , report its measured EC50.
< 3.16 nM

Given the entry "CN(CC(=O)O)c1c(C(=O)N[C@H]2CCOc3ccccc32)cnc2c(-c3cc(Cl)cc(Cl)c3)cccc12" , report its measured EC50.
3.16 to 31.6 nM

Given the entry "C[C@H]1CN(c2c(C(=O)N[C@H]3CCOc4ccccc43)cnc3c(-c4cc(Cl)cc(Cl)c4)cccc23)CCO1" , report its measured EC50.
< 3.16 nM

Given the entry "O=C(N[C@H]1CCOc2ccccc21)c1cnc2c(-c3cc(Cl)ccc3F)cccc2c1N1CCOCC1" , report its measured EC50.
< 3.16 nM

Given the entry O=C(N[C@H]1CCOc2ccccc21)c1cnc2c(-c3ccc(F)c(Cl)c3)cccc2c1N1CCC(O)C1 (mixture of isomers) , report its measured EC50.
3.16 to 31.6 nM

Given the entry "O=C(N[C@H]1CCOc2ccccc21)c1cnc2c(-c3cc(Cl)cc(Cl)c3)cccc2c1Cl" , report its measured EC50.
3.16 to 31.6 nM

Given the entry "COc1c(C(=O)N[C@H]2CCOc3ccccc32)cnc2c(-c3cc(Cl)cc(Cl)c3)cccc12" , report its measured EC50.
< 3.16 nM

Given the entry "O=C(N[C@H]1CCOc2ccccc21)c1cnc2c(-c3cc(Cl)cc(Cl)c3)cccc2c1N1CCC1" , report its measured EC50.
< 3.16 nM

Given the entry "Cc1cc(-c2cccc3c(N4CCOCC4)c(C(=O)N[C@H]4CCOc5ccccc54)cnc23)cc(C(C)(C)C)c1" , report its measured EC50.
< 3.16 nM

Given the entry O=C(N[C@H]1CCOc2ccccc21)c1cnc2c(-c3cccc(Cl)c3Cl)cccc2c1N1CCC(O)C1 (mixture of isomers) , report its measured EC50.
< 3.16 nM
